biological target: V. cholerae CqsS receptor (Vibrio cholerae serotype O1, UniProt Q9KM66); assay: CqsS agonist bioassay (V. cholerae reporter strain MM920, bioluminescence); details: EC50, complete bioassay data; mean of triplicate analyses, error = 95% confidence interval
Sequence (Q9KM66 whole entry, looked up): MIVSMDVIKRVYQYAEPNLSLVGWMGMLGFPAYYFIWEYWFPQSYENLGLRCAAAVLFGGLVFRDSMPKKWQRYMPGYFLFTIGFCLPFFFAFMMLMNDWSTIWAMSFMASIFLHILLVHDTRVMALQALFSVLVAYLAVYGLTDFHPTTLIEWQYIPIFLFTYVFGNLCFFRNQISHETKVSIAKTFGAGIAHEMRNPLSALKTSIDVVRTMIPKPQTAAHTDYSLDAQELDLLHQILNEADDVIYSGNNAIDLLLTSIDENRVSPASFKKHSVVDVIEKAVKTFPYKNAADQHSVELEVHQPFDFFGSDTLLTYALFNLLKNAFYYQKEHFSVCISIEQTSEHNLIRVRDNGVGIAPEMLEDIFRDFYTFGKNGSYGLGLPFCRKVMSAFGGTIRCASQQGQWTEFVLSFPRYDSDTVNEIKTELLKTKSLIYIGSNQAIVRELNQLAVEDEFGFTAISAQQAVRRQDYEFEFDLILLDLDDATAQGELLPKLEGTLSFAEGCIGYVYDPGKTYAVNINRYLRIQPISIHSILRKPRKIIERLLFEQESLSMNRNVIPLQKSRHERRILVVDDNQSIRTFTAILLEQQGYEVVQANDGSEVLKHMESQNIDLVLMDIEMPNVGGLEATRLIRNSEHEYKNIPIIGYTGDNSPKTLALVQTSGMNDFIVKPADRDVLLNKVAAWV
Reported EC50 values for a set of molecules
# unit: nM | format: bare number

Solved entries:
C/C=C(\N)C(=O)CCCCCCCC [Compound 9, (Z)-3-aminododec-2-en-4-one] ... 2.6
CCCCCCCCCC(=O)c1ccc[nH]1 [Compound 17, 1-(1H-pyrrol-2-yl)decan-1-one] ... 5170

Then this molecule:
Field EC50 (entry C/C=C(\N)C(=O)CCCCC [Compound 6, (Z)-3-aminonon-2-en-4-one] ) reads 594

Reference source for all entries: patent US9968587B2
